MEASURED TARGET: UniProt:Q923Y9
Sequence (Q923Y9 whole entry): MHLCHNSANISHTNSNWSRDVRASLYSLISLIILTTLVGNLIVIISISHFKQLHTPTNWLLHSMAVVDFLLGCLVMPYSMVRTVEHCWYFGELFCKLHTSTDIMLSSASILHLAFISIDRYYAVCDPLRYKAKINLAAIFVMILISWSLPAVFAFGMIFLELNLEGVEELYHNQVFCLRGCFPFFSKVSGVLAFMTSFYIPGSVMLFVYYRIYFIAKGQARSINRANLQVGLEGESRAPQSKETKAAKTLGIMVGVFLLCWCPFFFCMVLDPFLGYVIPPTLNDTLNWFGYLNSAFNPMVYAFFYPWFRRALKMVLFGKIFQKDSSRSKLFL
TEST DETAILS: Radioligand binding assay on rat TAAR1
SETUP CONDITIONS: rat TAAR1, membranes of stably transfected HEK-293 cells; second value of the pair; read-out: Ki (μM) mouse/rat: rat
Here the recorded Ki is given for each entry.
Could you write the number and then its unit?

Look over these answered cases.
In [3]: df
Out[3]:
                                   molecule  measured_target  parameter  value_measured
0  O=C(Nc1ccc(C2CNCCO2)nc1)c1cccc(Cl)c1 (racemic)   UniProt:Q923Y9         Ki       0.0889 µM
1  CCc1n[nH]c(C(=O)Nc2ccc([C@@H]3CNCCO3)nc2)c1Cl   UniProt:Q923Y9         Ki       0.0384 µM
2  O=C(Nc1ccc([C@H]2CNCCO2)nc1)Nc1cccc(C(F)(F)F)c1   UniProt:Q923Y9         Ki       0.0077 µM
3  O=C(Nc1cccc(Cl)c1)Nc1cnc(C2CNCCO2)c(F)c1 (racemic)   UniProt:Q923Y9         Ki       0.0286 µM
4  O=C(Nc1ccc(C2CNCCO2)nc1)c1ccc(Cl)cc1 (racemic)   UniProt:Q923Y9         Ki       0.0745 µM
5  CCCc1c(Cl)c(C(=O)Nc2ccc([C@@H]3CNCCO3)nc2)nn1C   UniProt:Q923Y9         Ki        0.651 µM

Exercise: # value lookup — system UniProt:Q923Y9, readout Ki, item `O=C(Nc1ccc([C@H]2CNCCO2)nc1)c1[nH]nc(C2CC2)c1F`
Key: 0.156 µM

Exercise: # value lookup — system UniProt:Q923Y9, readout Ki, item `CCc1ncc(C(=O)Nc2ccc([C@@H]3CNCCO3)nc2)cn1`
Key: 1.47 µM

Exercise: # value lookup — system UniProt:Q923Y9, readout Ki, item `CC(C)Cc1cc(C(=O)Nc2ccc([C@@H]3CNCCO3)nc2)[nH]n1`
Key: 0.011 µM

Exercise: # value lookup — system UniProt:Q923Y9, readout Ki, item `CCOc1n[nH]c(C(=O)Nc2ccc([C@H]3CNCCO3)nc2)c1Cl`
Key: 0.123 µM

Exercise: # value lookup — system UniProt:Q923Y9, readout Ki, item `CCc1n[nH]c(C(=O)Nc2ccc([C@@H]3CNCCO3)nc2)c1C`
Key: 0.27 µM

Exercise: # value lookup — system UniProt:Q923Y9, readout Ki, item `FC(F)(F)c1cccc(Nc2ccc([C@@H]3CNCCO3)nc2)n1`
Key: 0.0208 µM

Exercise: # value lookup — system UniProt:Q923Y9, readout Ki, item `Cc1cc(C(=O)Nc2ccc([C@H]3CNCCO3)nc2)nc(C(F)(F)F)n1`
Key: 0.0469 µM

Exercise: # value lookup — system UniProt:Q923Y9, readout Ki, item CCOc1ccc(C(=O)Nc2ccc(C3CNCCO3)nc2)cc1 (racemic)
Key: 0.328 µM

Exercise: # value lookup — system UniProt:Q923Y9, readout Ki, item `Clc1ccc(Nc2ccc([C@H]3CNCCO3)nc2)cc1`
Key: 0.182 µM

Exercise: # value lookup — system UniProt:Q923Y9, readout Ki, item FC(F)(F)c1ccc(Nc2cnc(C3CNCCO3)c(Cl)c2)nc1 (racemic)
Key: 0.122 µM

Exercise: # value lookup — system UniProt:Q923Y9, readout Ki, item `O=C(Nc1ccc([C@@H]2CNCCO2)nc1)c1ccc(OCC(F)(F)F)nc1`
Key: 0.0278 µM

Exercise: # value lookup — system UniProt:Q923Y9, readout Ki, item Clc1ccc(Nc2ccc(C3CNCCO3)nc2)cc1 (racemic)
Key: 0.071 µM

Exercise: # value lookup — system UniProt:Q923Y9, readout Ki, item `CC(C)n1nc(OCC(F)(F)F)cc1C(=O)Nc1ccc([C@H]2CNCCO2)nc1`
Key: 0.0041 µM

Exercise: # value lookup — system UniProt:Q923Y9, readout Ki, item `O=C(Nc1ccc([C@@H]2CNCCO2)nc1)c1[nH]nc(C(F)(F)F)c1Cl`
Key: 0.0838 µM

Exercise: # value lookup — system UniProt:Q923Y9, readout Ki, item `Cc1n[nH]c(C(=O)Nc2ccc([C@@H]3CNCCO3)nc2)c1Cl`
Key: 0.443 µM

Exercise: # value lookup — system UniProt:Q923Y9, readout Ki, item `FC(F)(F)c1cccc(Nc2ccc([C@H]3CNCCO3)nc2)n1`
Key: 0.122 µM

Exercise: # value lookup — system UniProt:Q923Y9, readout Ki, item `CCCc1n[nH]c(C(=O)Nc2ccc([C@H]3CNCCO3)nc2)c1F`
Key: 0.15 µM
